test: ATG_EGR_CIS: Attagene CIS-FACTORIAL HepG2 Assay for human Early Growth Response 1 (EGR1) (AID 2282938); details: HepG2 Attagene CIS-FACTORIAL EGR reporter mRNA; actives raise or lower the signal
Active and inactive are the calls of the source. How the source made its calls: active means hit-call score of the fitted dose curve at least 0.9, where 1 is the maximum; inactive means score below 0.9.
In this exercise, the only acceptable responses are active, inactive

Observe how each entry below is paired with its result.
{"given-smiles": "Clc1ccc(Nc2nnc(Cc3ccncc3)c3ccccc23)cc1", "class-name": "active"}
{"given-smiles": "NNC(=O)CCCCC(=O)NN", "class-name": "inactive"}

# outcome recorded in this test, key = O=C(NO)c1ccccc1
inactive

# outcome recorded in this test, key = Cc1cc(C(C)(C)C)c(O)c(C(C)(C)C)c1
inactive
